Tested on: glucose-6-phosphate dehydrogenase-6-phosphogluconolactonase (Plasmodium falciparum 3D7)
Experiment: inhibition of malaria parasite G6PD (PfGluPho) – biochemical, fluorescence intensity, uHTS, primary screen (AID 504690);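 note: 0% = DMSO wells with substrate and 100% = DMSO wells lacking glucose-6-phosphate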
Conditions: PfGluPho enzyme, NADPH resazurin-diaphorase fluorescence; at 20 µM; stronger effect = higher value
The campaign covered roughly 350,000 compounds. About 2,700 (0.77%) were called active. Only a selection was taken, and actives are over-represented in it overall.
quantity kind: inhibition (%)
Kindly answer with a numeric value in %, unit omitted.

{"columns": ["compound", "study target", "measurement units", "inhibition"],
 "data": [
  ["COc1ccc(-c2nnc(-c3ccc4ccccc4c3)o2)cc1", "glucose-6-phosphate dehydrogenase-6-phosphogluconolactonase (Plasmodium falciparum 3D7)", "%", 15.1]
]}

Req: Form field - read-out: inhibition; system: glucose-6-phosphate dehydrogenase-6-phosphogluconolactonase (Plasmodium falciparum 3D7); submitted item: O=C(O)C1CCCN1c1nc(Cl)ccc1[N+](=O)[O-] (stereo not given)
Resp: 26.3

Req: What about this compound? `CCOC(=O)[C@@H]1[C@H]2COc3ccc(Br)cc3[C@H]2N2C(=O)N(c3ccc(Cl)cc3)C(=O)[C@@]12C`
Resp: 9.82

Req: What about this compound? `CCc1ccc2[nH]c(=O)c(Cc3ccccc3)c(O)c2c1`
Resp: -9.56

Req: What about this compound? `Cc1ccc(C)c(NS(=O)(=O)c2c(C)[nH]c(C)c2C(=O)N2CCCCC2)c1`
Resp: -16.2

----------
Test system: glucose-6-phosphate dehydrogenase-6-phosphogluconolactonase (Plasmodium falciparum 3D7)
Experiment: inhibition of malaria parasite G6PD (PfGluPho) – biochemical, fluorescence intensity, uHTS, primary screen (AID 504690);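 note: 0% = DMSO wells with substrate and 100% = DMSO wells lacking glucose-6-phosphate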
Conditions: PfGluPho enzyme, NADPH resazurin-diaphorase fluorescence; at 20 µM
The whole screen tested about 350,000 compounds, of which about 2,700 (0.77%) were called active.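 The calls were made as follows: active = inhibition reaching at least a set limit at 20 µM in the primary screen (cut at about 59% in these data); inactive = the rest.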 The list comes from a sample in which actives are over-represented; it also holds close analogues and randomly drawn compounds.
Give one outcome, nothing more. List: active, inactive

Below are worked cases with known answers.
{"columns": ["smiles repr", "category label"],
 "data": [
  ["CC(=O)Nc1ccc(CC#N)cc1", "inactive"],
  ["COc1ccccc1-n1c(SCC(=O)Nc2ccc(Cl)cc2)nc(O)c(Cc2ccccc2)c1=O", "inactive"],
  ["CC(C)(C)NC(=O)NC(=O)COC(=O)C1c2ccccc2Oc2ccccc21", "inactive"]
]}

Req: What did the test return for `CCOC(=O)c1cc2c(=O)n3ccccc3nc2n(CC(C)C)c1=NC(=O)c1c(-c2c(F)cccc2Cl)noc1C` ?
Resp: inactive

Req: What about this molecule? `CCCN(CCC)C(=O)C1c2ccccc2Oc2ccccc21`
Resp: inactive

Req: What about this molecule? `CC(C)(C)c1nnc(NC(=O)C2c3ccccc3Oc3ccccc32)s1`
Resp: active

----------
Tested on: glucose-6-phosphate dehydrogenase-6-phosphogluconolactonase (Plasmodium falciparum 3D7)
Assay: inhibition of malaria parasite G6PD (PfGluPho) – biochemical, fluorescence intensity, uHTS, primary screen (AID 504690);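 note: 0% = DMSO wells with substrate and 100% = DMSO wells lacking glucose-6-phosphate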
Conditions: PfGluPho enzyme, NADPH resazurin-diaphorase fluorescence; at 20 µM; stronger effect = higher value
Among all 350,000 compounds or so, about 2,700 (0.77%) were called active. The sample holds actives, similar compounds and a random draw of the others, so the mix is not that of the screen.
quantity kind: inhibition (%)
Kindly answer with a numeric value in %, unit omitted.

{"columns": ["compound", "inhibition [%]"],
 "data": [
  ["COc1cccc(C(CC(=O)NCCN2CCOCC2)NS(=O)(=O)c2ccc(C)cc2)c1OC (configuration not stated)", 11],
  ["COc1ccc(Cc2nnnn2CC(=O)O)cc1", -4.83]
]}

Req: Form field - read-out: inhibition; system: glucose-6-phosphate dehydrogenase-6-phosphogluconolactonase (Plasmodium falciparum 3D7); submitted item: `O=C(C1CCN(S(=O)(=O)c2ccc(Br)s2)CC1)N1CCN(C2CCCCC2)CC1`
Resp: 3.65

Req: What about this compound? `O=C(OCC(=O)N1CCCCC1)c1ccc(OC(F)(F)F)cc1`
Resp: -6.53

----------
Test system: glucose-6-phosphate dehydrogenase-6-phosphogluconolactonase (Plasmodium falciparum 3D7)
Assay: inhibition of malaria parasite G6PD (PfGluPho) – biochemical, fluorescence intensity, uHTS, primary screen (AID 504690);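 note: 0% = DMSO wells with substrate and 100% = DMSO wells lacking glucose-6-phosphate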
Conditions: PfGluPho enzyme, NADPH resazurin-diaphorase fluorescence; at 20 µM
About 2,700 (0.77%) of roughly 350,000 compounds were called active.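 Rule for the calls: active = inhibition reaching at least a set limit at 20 µM in the primary screen (cut at about 59% in these data); inactive = the rest.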 This is one part of a sample in which actives are shown more often than they occur.
Give one outcome, nothing more. List: Y (active), N (inactive)

{"columns": ["compound", "category label"],
 "data": [
  ["COc1ccc(Nc2ncnc3sc(C)cc23)cc1", "N"],
  ["O=C1NC(=Nc2ccc(Cl)cc2)SC1Cc1cccc(Cl)c1Cl (configuration not stated)", "N"],
  ["CCc1ccccc1NC(=O)CN(C)C(=O)COc1ccc(C)nc1[N+](=O)[O-]", "N"]
]}

Req: What did the test return for CC1(OC(=O)CCc2ccccc2)C(=O)C=C2C=C(c3ccc(C#N)cc3)N(CCc3ccccn3)C=C2C1=O (configuration not stated) ?
Resp: N

Req: What about this compound? Cc1ccc(OCC(=O)NC(C)c2ccccc2)c([N+](=O)[O-])n1 (configuration not stated)
Resp: N

Req: What about this compound? COCCN1C=C2C(=O)C(C)(OC(=O)C3CCCC3)C(=O)C=C2C=C1c1ccsc1 (configuration not stated)
Resp: Y

Req: What about this compound? CC(Oc1cccc(Cl)c1)C(=O)Nc1ccc(S(=O)(=O)Nc2ncccn2)cc1 (configuration not stated)
Resp: N

Req: What about this compound? CC1CCCN(S(=O)(=O)c2ccc(N(C(=O)c3cnccn3)C(C(=O)NC3CCCCC3)c3cccs3)cc2)C1 (configuration not stated)
Resp: N

Req: What about this compound? `O=C(CCS(=O)(=O)c1cccc2nonc12)NCCc1ccccc1Cl`
Resp: N

----------
Tested on: glucose-6-phosphate dehydrogenase-6-phosphogluconolactonase (Plasmodium falciparum 3D7)
Test: inhibition of malaria parasite G6PD (PfGluPho) – biochemical, fluorescence intensity, uHTS, primary screen (AID 504690);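 note: 0% = DMSO wells with substrate and 100% = DMSO wells lacking glucose-6-phosphate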
Conditions: PfGluPho enzyme, NADPH resazurin-diaphorase fluorescence; at 20 µM
Screen size: about 350,000 compounds; about 2,700 (0.77%) were called active.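 Rule for the calls: active = inhibition reaching at least a set limit at 20 µM in the primary screen (cut at about 59% in these data); inactive = the rest.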 Only a selection was taken, and actives are over-represented in it overall.
Give one outcome, nothing more. List: active, inactive

Req: What did the test return for `COC(=O)/C=C\C(=O)Nc1cccc([N+](=O)[O-])c1` ?
Resp: inactive

Req: What about this molecule? COCC(=O)Nc1c(I)c(C(=O)NCC(O)CO)c(I)c(C(=O)N(C)CC(O)CO)c1I (stereo not drawn)
Resp: inactive

Req: What about this molecule? `C#CCOCCOCCOCCNc1nc(N2CCN(C(=O)Cn3cc(CCO)nn3)CC2)nc(N2CCN(C(=O)[C@H](CCCCN)n3cc(CCCC)nn3)CC2)n1`
Resp: inactive

Req: What about this molecule? OC(CNC1CCCC1)COc1ccc(F)cc1 (stereo not drawn)
Resp: inactive

Req: What about this molecule? `O=C(CSc1nnc(SCc2ccc(Cl)cc2)s1)N/N=C/c1ccccc1Cl`
Resp: active

Req: What about this molecule? `CCOC(=O)N1CCC(NC(=O)c2ccc3nc(N4CCOCC4)sc3c2)CC1`
Resp: inactive

Req: What about this molecule? `C#CCOCCOCCOCCNc1nc(N2CCN(C(=O)CCCCCCCCCCNC(=O)Cn3cc(CCCCCN)nn3)CC2)nc(N2CCN(C(=O)CCCCCCCCCCNC(=O)[C@H](CO)n3cc(CCCSC)nn3)CC2)n1`
Resp: active

Req: What about this molecule? `CCOc1ccccc1Nc1ccc(C(=O)O)cc1[N+](=O)[O-]`
Resp: inactive

Req: What about this molecule? `COc1ccc(S(=O)(=O)NCc2cccnc2)cc1NC(=O)c1ccc(C)cc1`
Resp: inactive

Req: What about this molecule? O=C(C1CC(=O)N(C2CCCCC2)C1)N1CCN(c2ccccc2)CC1 (stereo not drawn)
Resp: inactive

Req: What about this molecule? `CC(C)(C)c1cc2cccnc2n1Cc1ccccc1`
Resp: inactive

Req: What about this molecule? `CCN(c1ccc2c(c1)OCO2)S(=O)(=O)c1cc(Br)cc2c1N(C(=O)C1CC1)CC2`
Resp: inactive

----------
Tested on: glucose-6-phosphate dehydrogenase-6-phosphogluconolactonase (Plasmodium falciparum 3D7)
Assay: inhibition of malaria parasite G6PD (PfGluPho) – biochemical, fluorescence intensity, uHTS, primary screen (AID 504690);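 note: 0% = DMSO wells with substrate and 100% = DMSO wells lacking glucose-6-phosphate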
Conditions: PfGluPho enzyme, NADPH resazurin-diaphorase fluorescence; at 20 µM; stronger effect = higher value
Out of some 350,000 compounds screened, about 2,700 (0.77%) were called active. The sample as a whole holds a higher share of actives than the screen did.
quantity kind: inhibition (%)
Kindly answer with a numeric value in %, unit omitted.

Some solved cases for reference:
{"columns": ["compound", "inhibition / %"],
 "data": [
  ["c1ccc2cc3c(NCCN4CCOCC4)ccnc3cc2c1", 6.78],
  ["CCOC(OCC)c1ccc(/C=C\\c2nccc(N)n2)cc1", 5.93],
  ["O=C1CSC(=S)N1/N=C/c1ccc(O)c([N+](=O)[O-])c1", 18.4],
  ["CCCCC1=CC2=CC(=O)C(C)(OC(=O)CC)C(=O)C2=CN1CCCOC(C)C (stereo unspecified)", 34.2],
  ["Cc1csc(=O)n1CC(=O)Nc1ccc(S(C)(=O)=O)cc1", 1.5]
]}

Req: Reported inhibition for `O=C(CCC(=O)OCC(F)(F)C(F)F)NCc1ccccc1` : what is it?
Resp: 1.98

Req: What about this compound? CCCCN(C(=O)c1ccc(S(=O)(=O)N2CCOCC2)cc1)C1CCS(=O)(=O)C1 (stereo unspecified)
Resp: -2.48

Req: What about this compound? `CN(C)c1ccc(-c2nnc(-c3cccnc3)o2)cc1`
Resp: 3.13

Req: What about this compound? OC(CN=c1sc2ccccc2n1CC(O)COc1ccccc1)COc1ccccc1 (stereo unspecified)
Resp: 22.7

Req: What about this compound? CN(C)c1cccc(C(=O)N2CCC(n3nccc3NC(=O)C3CCOC3)CC2)c1 (stereo unspecified)
Resp: 3.81

Req: What about this compound? `CCOc1cccc(/C=N/N2C(=O)CSC2=S)c1O`
Resp: 60.8
